Assay: NCI Yeast Anticancer Drug Screen. Data for the bub3 strain (AID 167)
Details: S. cerevisiae bub3 mutant strain, at 50.0 µM, stronger effect = higher value
About 79,000 compounds went through this panel and 15% of them were active in at least one assay; those are over-represented in the sample as a whole. Active and inactive are the calls of the source. Cut-off read from the data, not from the text of the source: active = growth inhibition above about 70%; inactive = the rest.
Readout: growth inhibition

These solved cases illustrate the format of a correct answer.
Nc1nc2c(c(-c3ccccc3Cl)n1)COC/C2=C\c1ccccc1Cl = 41.1% (inactive)
COc1ccc(/C=C2\C=Cc3ccccc32)cc1OC = 10.7% (inactive)
O=c1[nH]c2nc3ccccc3c(=O)n2/c1=C/c1cccs1 = 14.3% (inactive)
COC(=O)c1cc(C)nc(Cl)c1C(=O)O = -2.05% (inactive)
O=C(O)c1ccc(N=C=S)cc1O = 3.8% (inactive)

Data request: Fill in the blank: the reported growth inhibition of CC1(C)OC(=O)C=C[C@@]2(C)C1CC(=O)C1(C)C2CCC2(C)C(c3ccoc3)OC(=O)[C@H]3O[C@]321 (stereo partly specified) is ____.
Data returned: -7% (inactive)
